# EXPERIMENTAL_SYSTEM: Ataxin-2 (Homo sapiens)
# ASSAY_EXPLANATION: qHTS for Inhibitors of ATXN expression.
# Format: functional
Screen size: about 400,000 compounds; about 2,100 (0.53%) were called active. Inconclusive results (about 14%) are left out. How the calls were made is not given here. This excerpt belongs to a sample that is enriched for actives.
Hi! Could you answer with just one of these? active, inactive

Please state the recorded outcome for this compound: O=C1NCCCC1C(=O)N/N=C/c1ccc(Cl)cc1 (configuration not stated)
inactive

Outcome? O=C(Cn1nnc2ccccc2c1=O)Nc1ccc(S(=O)(=O)N2CCOCC2)cc1
inactive

State the result this test recorded for C#Cc1ccc(CN2CCC(Oc3cc(C(=O)NC4CC4)ccc3OC)CC2)cc1 .
inactive

For this compound, state the assay outcome: COc1ccc(C2=NS(=O)(=O)N(C)C(C(=O)NC3CCCC3)=C2)cc1
inactive

What classification did CCN1C(=O)CC(C(C)C)N(C2CCCC2)c2nc(Nc3ccc(C(=O)NC4CCN(C)CC4)cc3OC)ncc21 (configuration not stated) end up with in this test?
active

Which result was noted for this compound in the test: O=C(CCCCC(=O)NN=Cc1ccc2c(c1)CCC2)NN=Cc1ccc2c(c1)CCC2
inactive

Entry CO/C(O)=C1\C(C)=NC2=C(C(=O)CC(C)(C)C2)C1c1cnn(C)c1C (configuration not stated) : call = ?
inactive

I'd appreciate the recorded outcome for CCC(C)Sc1ccc(-c2nc3cnccn3c2NC2CCCCC2)cc1 (configuration not stated) from this test.
inactive

Which result was noted for this compound in the test: CCCCCn1/c(=N/C(C)=O)c(C#N)cc2c(=O)n3ccccc3nc21
inactive

Any idea what this test logged for CCOCCCn1/c(=N/C(=O)c2cccnc2)c(C(=O)OCC)cc2c(=O)n3ccccc3nc21 ?
inactive

Write down the call the test reported for this compound. Item: C=CCNC(=O)C(C#N)c1nc2ccccc2nc1N1CCCCCC1 (configuration not stated)
inactive

Give the logged outcome of this assay for the following compound: CC(C)(C)OC(=O)NCc1ccc(CNC(=O)c2[nH]cnc2C(=O)NC2CCN(C(=O)OC(C)(C)C)CC2)cc1
active

Hey, what did the test say about O=c1oc2cc(O)ccc2cc1S(=O)(=O)c1ccccc1 ?
inactive

What is the recorded call for this compound in the test? Cc1ccc2[nH]c(SCC(=O)Nc3ccc(C(N)=O)cc3)nc2c1
inactive

Hi, sorry to bother you, what did the test record for C=CCn1c(SCc2cccc(F)c2)nc2cc(C(=O)N3CCC(C(N)=O)CC3)ccc2c1=O ?
inactive

Could you kindly confirm the outcome this assay logged for CC(=O)c1cc2c(cc1NC(=O)CSc1nc3cc(C)ccc3[nH]1)OCO2 ?
inactive

Recorded test call requested for O=C(Cn1ncc(Cl)c(Cl)c1=O)N1CCOCC1
active

What did the test return for COCc1cc(C)nc2sc(C(=O)Nc3ccc(C(C)=O)cc3)c(N)c12 ?
inactive

Tell me the recorded outcome of this test for O=C(Nc1cccc(NC(=O)c2cccc([N+](=O)[O-])c2)n1)c1cccc([N+](=O)[O-])c1 .
inactive

How did this test come out for N#Cc1cccc(NC(=O)CN2C(=O)NC(Cc3ccccc3)C2=O)c1 (configuration not stated) ?
inactive

Could you check what this test reported for Nc1ccc(-c2cc3ccccc3oc2=O)cc1 ?
inactive

Give the logged outcome of this assay for the following compound: CCCSc1nc2c(c(=O)[nH]c(=O)n2C)n1Cc1ccccc1
inactive

Please let me know the test result on file for Cc1ccc(Nc2cc(C)c(O)c(C)c2)cc1 .
inactive

Per the records of this test, what outcome belongs to Cc1cccc(NC(=O)c2cc(Cl)nc3ccccc23)n1 ?
inactive

# lookup: test call for CC(=O)NC(Cc1ccccc1C)C(=O)NC1CCN(C(=O)NCc2ccccc2)CC1 (configuration not stated)
inactive

Each compound tested received a call. Report the one for Cc1cc(-c2nc3cccnc3s2)ccc1NS(=O)(=O)c1ccc2c(c1)OCCO2 .
inactive

For COc1cc2nc(/C=C/c3cc(OC)c(OC)c(OC)c3)sc2cc1SC , what call appears in the results of this test?
inactive

Any idea what this test logged for CSCC(=O)Nc1cc(C)on1 ?
inactive

What did the test return for N#Cc1ccc(CN2CCN(C(=O)c3cc(Cl)c4c(c3)OCCO4)CC2)cc1 ?
inactive

Could you please tell me the result logged for Cc1ccc2[nH]c(-c3ccc(SCC(=O)Nc4nnc(C)s4)nc3)nc2c1 in this assay?
active

Could you please tell me the result logged for O=C(CCCCC(=O)NN=Cc1ccc(Cl)cc1)NN=Cc1ccc(Cl)cc1 in this assay?
active

Tell me the assay call for CS(=O)(=O)c1ncc(Cl)c(C(=O)N(Cc2ccc(Cl)cc2)Cc2ccco2)n1 please.
active

Call for entry COc1ccccc1/C=[N+](\[O-])C1SC(=S)N(C)C1(C)C (configuration not stated) :
inactive

Which outcome was assigned to CCCCCCn1c(SCCOC)nc2c1c(=O)[nH]c(=O)n2C in this test?
inactive

Outcome? Cc1ccc(C)c(OCC(O)CN2CCC(Cc3ccccc3)CC2)c1 (configuration not stated)
active

Which outcome was assigned to Nc1nc(-c2ccc(Cl)cc2)c(N=Nc2ccc(S(=O)(=O)N3CCOCC3)cc2)s1 in this test?
active

Fill in: this test's call for CCN1C(=O)CC(c2ccccc2)N(C2CCCC2)c2nc(Nc3ccc(C(=O)NC4CCN(C)CC4)cc3OC)ncc21 (configuration not stated) is ___
active

Hey, what did the test say about Oc1c(C(c2ccccn2)N2CCC(Cc3ccccc3)CC2)cc(Cl)c2cccnc12 (configuration not stated) ?
inactive

Please state the recorded outcome for this compound: O=C(Nc1cccc(NC(=O)c2cc([N+](=O)[O-])ccc2Cl)n1)c1cc([N+](=O)[O-])ccc1Cl
active

Answer briefly: the call reported for O=C(Cn1ncc(Cl)c(Cl)c1=O)N1CCc2ccccc21 in this assay.
active

Recorded test outcome, item Cn1c(=O)c2c(nc(Sc3ncnn3CC(=O)N3CCOCC3)n2C)n(C)c1=O
inactive

What call does the record list for Cc1ccc(S(=O)(=O)N2CCN(C(=O)c3cc(S(=O)(=O)N4CCOCC4)c(Cl)cc3Cl)CC2)cc1 ?
inactive
